Test: recombinant barcode read abundance after kanamycin selection (control-corrected) (log10(CPM+1)); higher = more efficient recombination; sequences stand for … in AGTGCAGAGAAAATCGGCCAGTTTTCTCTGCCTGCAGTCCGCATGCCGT…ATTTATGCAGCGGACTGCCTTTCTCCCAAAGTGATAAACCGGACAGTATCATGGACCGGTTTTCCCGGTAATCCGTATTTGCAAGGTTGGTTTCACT; site = the 11-nt target
Reported Endpoint: recombinant barcode read abundance (log10)

// for each sequence below, give its recombinant barcode read abundance (log10)
1. TCTACCCTATGGGTTCTAACCTGTTGCTGTA [TCTACCCCTCA_LTGcore_TA_RTGcore_TA] (site TCTACCCCTCA) (LTG core: TA, RTG core: TA)
2. AGGCGGTACTGGGTTCTAACCTGTTGCTTAG [AGGCGGTCTAA_LTGcore_AC_RTGcore_CT] (site AGGCGGTCTAA) (LTG core: AC, RTG core: CT)
3. GAGGCCTATTGGGTTCTAACCTGTTGCCAAG [GAGGCCTCTTG_LTGcore_AT_RTGcore_CT] (site GAGGCCTCTTG) (LTG core: AT, RTG core: CT)
4. TAGAGGGTGTGGGTTCTAACCTGTTGCGGCA [TAGAGGGCTCC_LTGcore_TG_RTGcore_TG] (site TAGAGGGCTCC) (LTG core: TG, RTG core: TG)

1: 0.0877; 2: 0.272; 3: 0.196; 4: 0.623

Entry under test: CGCGCCCCTTGGGTTCTAACCTGTTGCGGGA [CGCGCCCCTCC_LTGcore_CT_RTGcore_TC] (site CGCGCCCCTCC) (LTG core: CT, RTG core: TC) . Its recombinant barcode read abundance (log10) was 0.0431
